Target: PD-1-Ig binding to PD-L1-TVMV-His (PD-L1-His) (Homo sapiens (Human), UniProt Q9NZQ7)
Sequence (Q9NZQ7 other isoform, or with tags, fused parts or gaps): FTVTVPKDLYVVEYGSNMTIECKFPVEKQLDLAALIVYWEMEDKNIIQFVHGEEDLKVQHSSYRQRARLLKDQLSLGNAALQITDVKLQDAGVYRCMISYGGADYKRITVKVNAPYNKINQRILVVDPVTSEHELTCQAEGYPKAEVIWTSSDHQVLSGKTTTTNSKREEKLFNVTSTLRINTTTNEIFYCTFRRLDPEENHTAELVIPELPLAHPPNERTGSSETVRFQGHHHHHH
Experiment: PD-1/PD-L1 Homogenous Time-Resolved Fluorescence (HTRF) binding assay
Conditions: PD-1-Ig/PD-L1-His binding; value given as range class; read-out: HTRF IC50 (μM) or Range
property: IC50

Request: Any idea what its IC50 is? The compound is CC(C)C[C@@H]1NC(=O)[C@H](CN)NC(=O)[C@@H]2CCCN2C(=O)[C@H](CC(N)=O)NC(=O)[C@H](C)N(C)C(=O)[C@H](Cc2ccc(O)cc2)NC(=O)CSC[C@H](C(=O)NCC(N)=O)NC(=O)[C@@H](CCCNC(=N)N)NC(=O)[C@@H]2CCCC/C=C\CCCC[C@@H](C(=O)N2C)N(C)C(=O)[C@H](Cc2c[nH]c3ccccc23)NC(=O)[C@H](CO)NC(=O)[C@@H](Cc2c[nH]c3ccccc23)NC(=O)[C@@H]2C[C@@H](O)CN2C1=O
Response: 0.002 to 0.0099 µM

* * *

In this section we review reported IC50 values for a set of compounds.
Target: PD-1-Ig binding to PD-L1-TVMV-His (PD-L1-His) (Homo sapiens (Human))
Test: PD-1/PD-L1 Homogenous Time-Resolved Fluorescence (HTRF) binding assay
Conditions: PD-1-Ig/PD-L1-His binding; value given as range class; read-out: HTRF IC50 (μM) or Range

Request: # IC50 lookup, item C[C@H]1C(=O)N[C@@H](CC(=O)O)C(=O)N2CCC[C@H]2C(=O)N[C@@H](CN)C(=O)N[C@@H](CCC(=O)O)C(=O)N2C[C@H](O)C[C@H]2C(=O)N[C@@H](Cc2c[nH]c3ccccc23)C(=O)N[C@@H](CCN)C(=O)N[C@@H](Cc2cn(CC(=O)O)c3ccccc23)C(=O)N(C)C2CCCCC/C=C\CCCC[C@@H](C(=O)N[C@@H](CCC(=O)O)C(=O)N[C@H](C(=O)NCC(N)=O)CSCC(=O)N[C@@H](Cc3ccc(O)cc3)C(=O)N1C)N(C)C2=O
Response: 0.002 to 0.0099 µM

* * *

Catalogue of IC50 values
Biological target: PD-1-Ig binding to PD-L1-TVMV-His (PD-L1-His) (Homo sapiens (Human), UniProt Q9NZQ7)
Assay: PD-1/PD-L1 Homogenous Time-Resolved Fluorescence (HTRF) binding assay
Conditions: PD-1-Ig/PD-L1-His binding; value given as range class; read-out: HTRF IC50 (μM) or Range

Study these solved cases before continuing.
[
  {
    "compound": "CC(C)C[C@@H]1NC(=O)[C@H](CN)NC(=O)[C@@H]2CCCN2C(=O)[C@H](CC(N)=O)NC(=O)[C@H](C)N(C)C(=O)[C@H](Cc2ccc(O)cc2)NC(=O)CSC[C@H](C(=O)NCC(N)=O)NC(=O)[C@@H](CCCN)NC(=O)[C@H]2CCC/C=C\\CCC[C@@H](C(=O)N2C)N(C)C(=O)[C@H](Cc2c[nH]c3ccccc23)NC(=O)[C@H](CO)NC(=O)[C@@H](Cc2c[nH]c3ccccc23)NC(=O)[C@@H]2C[C@@H](O)CN2C1=O [Example 1104]",
    "target-or-test-system": "PD-1-Ig binding to PD-L1-TVMV-His (PD-L1-His) (Homo sapiens (Human), UniProt Q9NZQ7)",
    "assay-result": "0.01 to 0.099 µM"
  },
  {
    "compound": "C[C@H]1C(=O)N[C@@H](CC(=O)O)C(=O)N2CCC[C@H]2C(=O)N[C@@H](CN)C(=O)N[C@@H](CCC(=O)O)C(=O)N2C[C@H](O)C[C@H]2C(=O)N[C@@H](Cc2c[nH]c3ccccc23)C(=O)N[C@@H](CO)C(=O)N[C@@H](Cc2csc3ccccc23)C(=O)N(C)[C@H]2CCCC/C=C\\CCCC[C@@H](C(=O)N[C@@H](CN)C(=O)N[C@H](C(=O)NCC(N)=O)CSCC(=O)N[C@@H](Cc3ccc(O)cc3)C(=O)N1C)N(C)C2=O [Example 1118]",
    "target-or-test-system": "PD-1-Ig binding to PD-L1-TVMV-His (PD-L1-His) (Homo sapiens (Human), UniProt Q9NZQ7)",
    "assay-result": "0.002 to 0.0099 µM"
  },
  {
    "compound": "C[C@@H]1NC(=O)[C@@H]2CCCC/C=C\\CCCC[C@@H](C(=O)N2C)N(C)C(=O)[C@H](Cc2c[nH]c3ccccc23)NC(=O)[C@H](CO)NC(=O)[C@H](Cc2c[nH]c3ccccc23)NC(=O)[C@@H]2C[C@@H](O)CN2C(=O)[C@H](CCC(N)=O)NC(=O)[C@H](Cc2cnc[nH]2)NC(=O)[C@@H]2CCCN2C(=O)[C@H](CC(=O)O)NC(=O)[C@H](C)N(C)C(=O)[C@H](Cc2ccc(O)cc2)NC(=O)CSC[C@@H](C(=O)NCC(N)=O)NC1=O [Example 1113]",
    "target-or-test-system": "PD-1-Ig binding to PD-L1-TVMV-His (PD-L1-His) (Homo sapiens (Human), UniProt Q9NZQ7)",
    "assay-result": "0.002 to 0.0099 µM"
  },
  {
    "compound": "CC(C)C[C@@H]1NC(=O)[C@H](Cc2cnc[nH]2)NC(=O)[C@@H]2CCCN2C(=O)[C@H](CC(N)=O)NC(=O)[C@H](C)N(C)C(=O)[C@H](Cc2ccccc2)NC(=O)CSC[C@@H](C(=O)NCC(N)=O)NC(=O)[C@H](CCCNC(=N)N)NC(=O)[C@@H]2CCCC/C=C/CCCC[C@@H](C(=O)N2C)N(C)C(=O)[C@H](Cc2c[nH]c3ccccc23)NC(=O)[C@H](CO)NC(=O)[C@H](Cc2c[nH]c3ccccc23)NC(=O)CN(C)C1=O [Example 1001]",
    "target-or-test-system": "PD-1-Ig binding to PD-L1-TVMV-His (PD-L1-His) (Homo sapiens (Human), UniProt Q9NZQ7)",
    "assay-result": "0.01 to 0.099 µM"
  }
]

Request: State its IC50 on PD-1-Ig binding to PD-L1-TVMV-His (PD-L1-His) (Homo sapiens (Human), UniProt Q9NZQ7): CC(C)C[C@@H]1NC(=O)[C@H](Cc2cnc[nH]2)NC(=O)[C@@H]2CCCN2C(=O)[C@H](CC(N)=O)NC(=O)[C@H](C)N(C)C(=O)[C@H](Cc2ccc(O)cc2)NC(=O)CSC[C@@H](C(=O)NCC(N)=O)NC(=O)[C@H](CCCNC(=N)N)NC(=O)[C@@H]2CCC/C=C\CCC[C@@H](C(=O)N2C)N(C)C(=O)[C@H](Cc2c[nH]c3ccccc23)NC(=O)[C@H](CO)NC(=O)[C@H](Cc2c[nH]c3ccccc23)NC(=O)[C@@H]2C[C@@H](O)CN2C1=O [Example 1101]
Response: 0.1 to 2 µM
